Give Ki for every item shown.
# targetDesc: hERG channel (Homo sapiens)
# Construct: purchased; host or cells: HEK-293 cells stably expressing hERG (membranes)
# Sequence (Q12809 whole entry): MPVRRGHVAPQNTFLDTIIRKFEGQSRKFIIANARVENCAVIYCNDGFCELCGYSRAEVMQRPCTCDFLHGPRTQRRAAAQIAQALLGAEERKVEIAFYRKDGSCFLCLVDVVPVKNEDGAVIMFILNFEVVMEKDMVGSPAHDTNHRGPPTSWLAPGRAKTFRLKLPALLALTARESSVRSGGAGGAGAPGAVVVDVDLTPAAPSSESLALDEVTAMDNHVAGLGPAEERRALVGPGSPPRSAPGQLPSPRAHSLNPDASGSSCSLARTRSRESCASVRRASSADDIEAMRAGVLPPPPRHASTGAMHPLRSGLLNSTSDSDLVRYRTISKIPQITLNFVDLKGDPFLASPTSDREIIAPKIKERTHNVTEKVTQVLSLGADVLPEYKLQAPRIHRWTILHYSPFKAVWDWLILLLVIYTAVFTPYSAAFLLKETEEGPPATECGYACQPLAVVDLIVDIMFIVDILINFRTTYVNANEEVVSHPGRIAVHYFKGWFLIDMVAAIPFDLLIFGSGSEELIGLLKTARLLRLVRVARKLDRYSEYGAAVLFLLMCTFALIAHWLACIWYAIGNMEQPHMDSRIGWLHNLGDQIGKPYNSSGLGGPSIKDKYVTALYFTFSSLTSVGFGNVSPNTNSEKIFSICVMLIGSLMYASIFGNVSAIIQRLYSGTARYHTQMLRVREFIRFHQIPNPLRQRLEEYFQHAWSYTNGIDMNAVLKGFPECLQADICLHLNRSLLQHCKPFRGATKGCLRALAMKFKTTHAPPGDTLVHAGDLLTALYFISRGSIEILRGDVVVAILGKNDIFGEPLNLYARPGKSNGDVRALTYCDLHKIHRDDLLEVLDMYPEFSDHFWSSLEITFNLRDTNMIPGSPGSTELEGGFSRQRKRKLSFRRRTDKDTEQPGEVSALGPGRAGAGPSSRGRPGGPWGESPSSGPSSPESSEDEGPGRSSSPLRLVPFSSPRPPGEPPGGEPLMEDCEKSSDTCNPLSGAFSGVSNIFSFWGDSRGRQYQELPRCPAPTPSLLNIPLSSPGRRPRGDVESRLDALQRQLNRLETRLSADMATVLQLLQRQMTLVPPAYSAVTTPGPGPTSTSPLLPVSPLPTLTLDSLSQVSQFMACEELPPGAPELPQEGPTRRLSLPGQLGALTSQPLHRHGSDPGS
# procedureDetails: [3H]Dofetilide binding assay, HEK-293 cell membrane preparation
# studyConditions: hERG Binding: Mean Ki (nM), Table 4; mean, minimally n = 3
# Procedure: Membranes were suspended in assay buffer (50 mM Tris, 10 mM KCl, 1 mM MgCl2, pH 7.4) prior to the experiment. […] Nonspecific binding was determined in the presence of amitriptyline (1 mM). Samples were incubated for 1 hr. at 24° C., followed by rapid filtration.
Give bare numbers, in nM.

Solved entries:
compound	Ki / nM
CC(Cc1ccc(F)c(F)c1)NCCCc1cccc(NC(N)=O)c1 (centres unmarked)	4380
CC(Cc1ccc(F)c(F)c1)NCCCc1ccc2nccnc2c1 (centres unmarked)	2590
CC(Cc1ccc(F)c(F)c1)NCCCc1ccc2[nH]ncc2c1 (centres unmarked)	1020
CC(Cc1ccc(F)c(F)c1)NCCCc1ccc(C(N)=O)cc1 (centres unmarked)	3500

Respond only with Ki recorded for CC(Cc1ccc2nccnc2c1)NCCCc1ccc(F)cc1 (centres unmarked)
1900
